B1: STEAP1 (parent)
chain: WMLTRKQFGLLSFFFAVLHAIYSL

Variants of: B1
assay_summary: protein stability index of a GFP-peptide fusion (GPS, HEK-293T) (PSI 1-6); higher = more stable;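 further: lentivirally expressed fusions sorted by FACS into six bins by GFP to DsRed ratio, PSI derived from sequencing read proportions per bin multiplied by bin number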
condition_context: c terminus: a fixed tail appended
measurement_kind: protein stability index
Give a plain numeric answer without units written out.

Check out these entries, answers already filled in.
G9E 1.99
I21L 3.18
H19D 1.82
S23C 1.75
M2C 1.49
A16N 1.88

From here, focus on the item given below.
Consider the variant shown here: Q7P What is its recorded protein stability index?
1.45

Each recorded value in this set is attributed to the supplement of paper PMC10567573.
